- Test system: IGROV1 ovarian
- testSummary: NCI tumour cell line growth inhibition, 48 h
Provide the recorded TGI for the entries that follow.
Numbers only, in µM.

Example entries begin here.
N#C/C(=C1C=C/C(=N/O)C(Br)=C/1)c1ccccc1	12.2
CCOC(=O)C1Cc2[nH]c3ccccc3c2C(C)C1C (stereo unspecified)	33.9
N#Cc1ccc(C#Cc2ccccc2C#CCCCCO)cc1	27.6
CCN(CC)CCc1c2c(nc3ccccc13)C(=O)c1cccnc1C2=O	5.53
CC1=C(C(=O)Nc2ccc([N+](=O)[O-])cc2)C(c2ccc(N(C)C)cc2)C(C(=O)Nc2ccc([N+](=O)[O-])cc2)=C(C)N1	61.9
Cc1nn(CN2CCN(C)CC2)c(=S)n1/N=C/c1cccc2ccccc12	55.1
O=C(Nc1ccc(N2CCNCC2)cc1)c1[nH]ncc1Nc1cc(Oc2ccccc2)ncn1	11.3
NCC(=O)NS(=O)(=O)OC[C@H]1O[C@@H](n2cnc3c(N)ncnc32)[C@H](O)[C@@H]1O	7.68

Here are 3 compounds. What values of TGI were reported for them?
1. CC(C)c1ccc2[nH]c(O)c(-c3[nH]c4ccccc4c3N=O)c2c1
2. COc1cc(/C=C/c2cc(/C=C/c3ccc(O)c(OC)c3)n(-c3ccccc3)n2)ccc1O
3. COc1ccc2[nH]c3c(C)c4c(c(C)c3c2c1)CN(C)CC4

Outgoing:
[21.2, 4.02, 35.9]
